target: T1, VAQAQINI-NH2 amyloid (designed); test: pelleting/HPLC; Bmax 0.147; citrate-phosphate buffer, pH 3 (or pH series), room temperature, overnight, 100 uM peptide with 25 or 50 uM oligo; Kd: 50 uM peptide with 5-200 uM oligo; supern; conditions: single strand
T1 chain: VAQAQINI-NH2
No end group written: not given here.
Property: Kd
Lab note: write values as number then unit, every time.

[ask] Would you mind telling me what Kd value was observed for GUCA (ssRNA, 5' and 3' phosphate) [pGUCAp] ?
[reply] 1.95 µM
